Reference source for all entries: patent US10973832B2

ASSAYED TARGET: human muscarinic M2 receptor (Homo sapiens, UniProt P08172)
Sequence (P08172 whole entry): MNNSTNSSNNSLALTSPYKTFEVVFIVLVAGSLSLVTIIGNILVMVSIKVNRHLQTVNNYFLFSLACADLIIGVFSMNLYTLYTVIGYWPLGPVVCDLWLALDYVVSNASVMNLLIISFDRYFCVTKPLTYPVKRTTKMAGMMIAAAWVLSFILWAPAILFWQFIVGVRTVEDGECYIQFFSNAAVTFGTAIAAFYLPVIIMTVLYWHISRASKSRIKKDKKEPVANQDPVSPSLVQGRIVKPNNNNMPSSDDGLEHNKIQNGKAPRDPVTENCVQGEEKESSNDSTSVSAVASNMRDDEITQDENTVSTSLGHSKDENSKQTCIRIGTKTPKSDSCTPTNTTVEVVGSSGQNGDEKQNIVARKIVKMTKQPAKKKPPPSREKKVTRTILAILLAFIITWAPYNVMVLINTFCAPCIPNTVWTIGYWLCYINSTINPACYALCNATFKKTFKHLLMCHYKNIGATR
TEST: Phospho-ERK1/2 assay, muscarinic M2
Type: cell-based
REPORTED CONDITIONS: CHO, read-out: % Emax cf. ACh (M2)
MEASURED METRIC: Emax (%)

>>> df
                                   molecule  data_value
0  CC#CCOC(=O)N1CCCC(N2CCC(OC)(C(=O)NC3(C)CCC3)CC2)CC1 (stereo not drawn)          15
1  CCOC(=O)N1CCCC(N2CCC(F)(C(=O)NC3(C)CCCC3)CC2)CC1 (stereo not drawn)          12
2  CCOC(=O)N1CCCC(N2CCC(F)(C(=O)NC(C)(C)CC)CC2)CC1 (stereo not drawn)          41
3  [2H]C([2H])([2H])C([2H])(C([2H])([2H])[2H])C([2H])([2H])NC(=O)C1CCN(C2CCCN(C(=O)OCC)CC2)CC1 (stereo not drawn)          14

I = CCOC(=O)N1CCCC(N2CCC(OC)(C(=O)NCC3(C)CCC3)CC2)CC1 (stereo not drawn)
II = CCOC(=O)N1CCCC(N2CCC(C(=O)N(CC)CC3CC3)CC2)CC1 (stereo not drawn)
III = CCOC(=O)N1CCC[C@H](N2CCC(C(=O)NC(C)(C)C)CC2)CC1
IV = CCOC(=O)N1CCCC(N2CCC(C(=O)NCC(C)C)CC2)CC1 (stereo not drawn)
V = CCOC(=O)N1CCCC(N2CCC(F)(C(=O)NC3(C)CCC3)CC2)CC1 (stereo not drawn)
q: Sort by Emax, descending. Enter labels, ranked according to the request.
a: III, V, IV, II, I

====

ASSAYED TARGET: human muscarinic M4 receptor (Homo sapiens)
Construct: expressed in transfected cells
TEST: Phospho-ERK1/2 assay, muscarinic M4
Type: cell-based
REPORTED CONDITIONS: CHO cells expressing human M4; phospho-ERK1/2 Alphascreen; read-out: pEC50 M4 (converted)
MEASURED METRIC: EC50 (nM)

1 = CCOC(=O)N1CCCC(N2CCC(C(=O)NCC(C)CC)CC2)CC1 (stereo not drawn) [Example 8]
2 = CCOC(=O)N1CCCC(N2CCC(C(=O)NCC(C)(C)C)CC2)CC1 (stereo not drawn) [Example 9]
q: Lab notebook, comparison: 1 versus 2 , higher EC50 goes to which? Your answer should be the label attached to the chosen record.
a: 1

a = CCOC(=O)N1CCCC(N2CCC(F)(C(=O)NCC3CCCC3)CC2)CC1 (stereo not drawn) [Example 53]
b = CCOC(=O)N1CCCC(N2CCC(C)(C(=O)NC3(C)CCC3)CC2)CC1 (stereo not drawn) [Example 78]
c = CCOC(=O)N1CCCC(N2CCC(C(=O)NC(C)(C)C)CC2)CC1 (stereo not drawn) [Example 7]
d = CCOC(=O)N1CCC[C@@H](N2CCC(C(=O)NC3(C)CCC3)CC2)CC1 [Example 66]
q: Ascending sort, EC50. Enter labels, ranked according to the request.
a: c, b, a, d

====

ASSAYED TARGET: human muscarinic M4 receptor (Homo sapiens, UniProt P08173)
Construct: expressed in transfected cells
Sequence (P08173 1-479): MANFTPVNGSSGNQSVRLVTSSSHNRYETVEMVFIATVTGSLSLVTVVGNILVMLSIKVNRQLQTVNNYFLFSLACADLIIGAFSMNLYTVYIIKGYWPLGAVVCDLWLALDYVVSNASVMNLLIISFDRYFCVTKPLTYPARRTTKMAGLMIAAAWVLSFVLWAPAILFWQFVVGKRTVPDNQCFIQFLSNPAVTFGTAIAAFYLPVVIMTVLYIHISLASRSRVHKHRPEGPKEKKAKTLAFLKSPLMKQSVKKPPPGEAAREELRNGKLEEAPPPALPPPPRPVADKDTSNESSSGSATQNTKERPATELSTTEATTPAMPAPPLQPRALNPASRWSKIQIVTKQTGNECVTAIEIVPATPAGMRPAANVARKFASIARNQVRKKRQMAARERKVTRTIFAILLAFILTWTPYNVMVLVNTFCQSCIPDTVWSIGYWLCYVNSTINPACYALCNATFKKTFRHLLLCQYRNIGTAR
TEST: Phospho-ERK1/2 assay, muscarinic M4
Format: cell-based
Form field: pEC50 (one value per entry).
Just the number, please; pEC50 means minus log10 of the concentration in mol/L.

>>> df
                                   molecule  data_value
0  CCOC(=O)N1CCCC(N2CCC(C(=O)NC3(C)CCC3)CC2)CC1 (centres unmarked)        6.37

Next, consider the following molecule.
Lab note: CCOC(=O)N1CCC[C@H](N2CCC(C(=O)NC3(C)CCC3)CC2)CC1 gave pEC50 of 6.65

====

ASSAYED TARGET: human muscarinic M3 receptor (Homo sapiens)
Construct: expressed in transfected cells
TEST: Phospho-ERK1/2 assay, muscarinic M3
Type: cell-based
MEASURED METRIC: EC50

>>> print(df.to_string())
                                   compound                            assayed_target  data_value
0  CCOC(=O)N1CCC[C@H](N2CCC(C(=O)NC3(C)CCC3)CC2)CC1 [Example 65]  human muscarinic M3 receptor (Homo sapiens)     > 20 µM

Next, consider the following compound.
Lab note: CCOC(=O)N1CCCC(N2CCC(C(=O)NC3(C)CCC3)CC2)CC1 (centres unmarked) [Example 27] gave EC50 of > 20 µM

====

ASSAYED TARGET: human muscarinic M3 receptor (Homo sapiens, UniProt P20309)
Construct: expressed in transfected cells
Sequence (P20309 whole entry): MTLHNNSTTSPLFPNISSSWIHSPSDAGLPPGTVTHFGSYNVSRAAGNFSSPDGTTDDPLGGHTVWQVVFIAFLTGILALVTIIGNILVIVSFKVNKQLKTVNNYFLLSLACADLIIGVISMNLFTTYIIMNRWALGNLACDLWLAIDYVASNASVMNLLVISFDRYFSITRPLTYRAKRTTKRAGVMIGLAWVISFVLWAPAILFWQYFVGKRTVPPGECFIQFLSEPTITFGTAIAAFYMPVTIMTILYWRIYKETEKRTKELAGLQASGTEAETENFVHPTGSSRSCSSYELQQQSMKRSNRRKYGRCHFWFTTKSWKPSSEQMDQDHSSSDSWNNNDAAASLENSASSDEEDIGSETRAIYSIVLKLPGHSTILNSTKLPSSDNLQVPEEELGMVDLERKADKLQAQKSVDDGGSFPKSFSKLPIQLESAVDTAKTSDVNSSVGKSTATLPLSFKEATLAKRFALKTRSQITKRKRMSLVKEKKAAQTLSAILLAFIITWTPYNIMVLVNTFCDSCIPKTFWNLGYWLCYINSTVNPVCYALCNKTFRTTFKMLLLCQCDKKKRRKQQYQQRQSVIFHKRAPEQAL
TEST: Phospho-ERK1/2 assay, muscarinic M3
Format: cell-based
REPORTED CONDITIONS: CHO, read-out: % Emax cf. ACh (M3)
MEASURED METRIC: Emax (%)

Record excerpt, results attached:
In [3]: df
Out[3]:
                                   compound                            assayed_target  measured_metric  units  data_value
0  CCOC(=O)N1CCC[C@H](N2CCC(C(=O)NCC(C)C)CC2)CC1 [Example 63]  human muscarinic M3 receptor (Homo sapiens, UniProt P20309)             Emax      %           5
1  CCOC(=O)N1CCCC(N2CCC(F)(C(=O)NCC(C)(C)C)CC2)CC1 (stereo not drawn) [Example 46]  human muscarinic M3 receptor (Homo sapiens, UniProt P20309)             Emax      %           1

1 = CCOC(=O)N1CCCC(N2CCC(C(=O)NC(C)(C)C(C)C)CC2)CC1 (stereo not drawn) [Example 31]
2 = CCOC(=O)N1CCCC(N2CCC(F)(C(=O)NC3(C)CCC3)CC2)CC1 (stereo not drawn) [Example 50]
3 = C#CCOC(=O)N1CCCC(N2CCC(C(=O)NCC(C)C)CC2)CC1 (stereo not drawn) [Example 57]
4 = CCOC(=O)N1CCCC(N2CCC(C(=O)NC3(C)CCCCC3)CC2)CC1 (stereo not drawn) [Example 17]
q: Sort by Emax, descending. Enter labels, ranked according to the request.
a: 1, 3, 4, 2
(1: 13%, 3: 8%, 4: 5%, 2: 2%)

1 = CCOC(=O)N1CCCC(N2CCC(F)(C(=O)NCC3CCCC3)CC2)CC1 (stereo not drawn) [Example 53]
2 = CCOC(=O)N1CCCC(N2CCC(C)(C(=O)NCC(C)C)CC2)CC1 (stereo not drawn) [Example 56]
3 = CCOC(=O)N1CCCC(N2CCC(OC)(C(=O)NC3(C)CCC3)CC2)CC1 (stereo not drawn) [Example 79]
q: Ascending sort, Emax. Enter labels, ranked according to the request.
a: 2, 1, 3

====

ASSAYED TARGET: human muscarinic M4 receptor (Homo sapiens, UniProt P08173)
Construct: expressed in transfected cells
Sequence (P08173 1-479): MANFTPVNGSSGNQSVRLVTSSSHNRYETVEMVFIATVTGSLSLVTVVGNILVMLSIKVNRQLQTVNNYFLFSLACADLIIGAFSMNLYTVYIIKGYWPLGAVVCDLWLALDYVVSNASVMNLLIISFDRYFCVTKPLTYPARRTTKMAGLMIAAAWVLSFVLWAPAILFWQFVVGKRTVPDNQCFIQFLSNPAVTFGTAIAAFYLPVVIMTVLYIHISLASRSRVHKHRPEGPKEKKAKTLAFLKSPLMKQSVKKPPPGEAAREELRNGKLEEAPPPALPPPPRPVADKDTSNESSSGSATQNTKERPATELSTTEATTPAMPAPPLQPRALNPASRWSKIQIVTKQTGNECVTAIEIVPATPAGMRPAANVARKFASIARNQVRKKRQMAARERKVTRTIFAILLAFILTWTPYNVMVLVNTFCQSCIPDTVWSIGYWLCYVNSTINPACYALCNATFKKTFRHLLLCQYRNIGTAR
TEST: Phospho-ERK1/2 assay, muscarinic M4
Assay type: cell-based
REPORTED CONDITIONS: CHO, read-out: % Emax cf. ACh (M4)
Protocol: Functional assays were performed using the Alphascreen Surefire phospho-ERK1/2 assay (Crouch & Osmond, Comb. Chem. High Throughput Screen, 2008). […] Plates were incubated for 2 h with gentle agitation in the dark and then read on a PHERAstar plate reader. pEC50 and Emax figures were calculated from the resulting data for each receptor subtype.
MEASURED METRIC: Emax (%)

Record excerpt, results attached:
COMPOUND	DATA VALUE
CCOC(=O)N1CCCC(N2CCC(C(=O)NCC(C)C3CC3)CC2)CC1 (stereo not drawn) [Example 39]	13
CCOC(=O)N1CCCC(N2CCC(C(=O)NCC3CCC3)CC2)CC1 (stereo not drawn) [Example 11]	67
CCOC(=O)N1CCCC(N2CCC(C(=O)NCC(C)CC)CC2)CC1 (stereo not drawn) [Example 8]	55
CCOC(=O)N1CCCC(N2CCC(C(=O)N(CC)CC3CC3)CC2)CC1 (stereo not drawn) [Example 26]	51
CCOC(=O)N1CCCC(N2CCC(C(=O)NC(C)(C)C)CC2)CC1 (stereo not drawn) [Example 7]	80
CCOC(=O)N1CCCC(N2CCC(F)(C(=O)NCC(C)C)CC2)CC1 (stereo not drawn) [Example 40]	89
CCOC(=O)N1CCCC(N2CCC(F)(C(=O)NC3CCCC3)CC2)CC1 (stereo not drawn) [Example 51]	93
CCOC(=O)N1CCCC(N2CCC(F)(C(=O)NC(C)(C)C(C)C)CC2)CC1 (stereo not drawn) [Example 44]	113

A = CCOC(=O)N1CCCC(N2CCC(C(=O)NCC3(C)CCC3)CC2)CC1 (stereo not drawn) [Example 69]
B = CCOC(=O)N1CCCC(N2CCC(OC)(C(=O)NC3(C)CCC3)CC2)CC1 (stereo not drawn) [Example 79]
C = CCOC(=O)N1CCCC(N2CCC(F)(C(=O)NC(C)(C)C3CC3)CC2)CC1 (stereo not drawn) [Example 54]
D = CCOC(=O)N1CCCC(N2CCC(C(=O)NCC3(C)CCCC3)CC2)CC1 (stereo not drawn) [Example 18]
q: Sort by Emax, descending. Enter labels, ranked according to the request.
a: C, A, D, B

I = CCOC(=O)N1CCCC(N2CCC(C(=O)NCC3(CC)CCC3)CC2)CC1 (stereo not drawn) [Example 37]
II = CCOC(=O)N1CCCC(N2CCC(C(=O)NCC(C)(C)C)CC2)CC1 (stereo not drawn) [Example 9]
III = CCOC(=O)N1CCCC(N2CCC(OC)(C(=O)NCC3(C)CCC3)CC2)CC1 (stereo not drawn) [Example 81]
q: Ascending sort, Emax. Enter labels, ranked according to the request.
a: III, II, I
(III: 9%, II: 41%, I: 75%)
